Test system: P-Akt (S473)
Assay: Cell based AlphaLISA assay, inhibition of P-Akt (S473) (mTORC2 substrate phosphorylation) in MDA-MB-468 cells
Details: Homo sapiens, MDA-MB-468, 4 h, AlphaLISA, two to four hours at 37° C., read-out: pIC50 for Inhibition of mTORC1 and mTORC2 Substrate Phosphorylation, p-AKT 1/2/3 -(S473) (converted)
assay endpoint: IC50

Known IC50 results, listed for orientation:
molecule	IC50
CO[C@H]1C[C@@H]2CC[C@@H](C)[C@@](O)(O2)C(=O)C(=O)N2CCCC[C@H]2C(=O)O[C@H]([C@H](C)C[C@@H]2CC[C@@H](OCc3cccc(-c4cnc(N5CCN(Cc6cn(CCOCCOCCOCCC(=O)NCCCCn7nc(-c8ccc9oc(N)nc9c8)c8c(N)ncnc87)nn6)C(CO)C5)nc4)c3)[C@H](OC)C2)CC(=O)[C@H](C)/C=C(\C)[C@@H](O)[C@@H](OC)C(=O)[C@H](C)C[C@H](C)/C=C/C=C/C=C/1C (stereo partly drawn)	3.16 to 31.6 nM
CO[C@H]1C[C@@H]2CC[C@@H](C)[C@@](O)(O2)C(=O)C(=O)N2CCCC[C@H]2C(=O)O[C@H]([C@H](C)C[C@@H]2CC[C@H](n3cc(CCCC(=O)NCCOCCOCCOCCC(=O)NCCOCCOCCOCCC(=O)NCCCCn4nc(-c5cc6cc(O)ccc6[nH]5)c5c(N)ncnc54)nn3)[C@H](OC)C2)C/C(=N/OCc2ccccc2)[C@H](C)/C=C(\C)[C@@H](O)[C@@H](OC)C(=O)[C@H](C)C[C@H](C)/C=C/C=C/C=C/1C	> 1000 nM
CO/N=C1/C[C@@H]([C@H](C)C[C@@H]2CC[C@H](n3cc(CCCC(=O)NCCOCCOCCOCCC(=O)NCCOCCOCCOCCC(=O)NCCCCn4nc(-c5ccc6oc(N)nc6c5)c5c(N)ncnc54)nn3)[C@H](OC)C2)OC(=O)[C@@H]2CCCCN2C(=O)C(=O)[C@]2(O)O[C@@H](CC[C@H]2C)C[C@H](OC)/C(C)=C/C=C/C=C/[C@@H](C)C[C@@H](C)C(=O)[C@H](OC)[C@H](O)/C(C)=C/[C@H]1C	> 1000 nM
CO[C@@H]1C[C@H](C[C@@H](C)[C@@H]2CC(=O)[C@H](C)/C=C(\C)[C@@H](O)[C@@H](OC)C(=O)[C@H](C)C[C@H](C)/C=C/C=C/C=C(\C)[C@@H](c3ccco3)C[C@@H]3CC[C@@H](C)[C@@](O)(O3)C(=O)C(=O)N3CCCC[C@H]3C(=O)O2)CC[C@H]1OCCCCc1cn(CCOCCOCCOCCOCCOCCOCCOCCOCCC(=O)NCCCCn2nc(-c3ccc4oc(N)nc4c3)c3c(N)ncnc32)nn1	< 3.16 nM

// CO[C@H]1C[C@@H]2CC[C@@H](C)[C@@](O)(O2)C(=O)C(=O)N2CCCC[C@H]2C(=O)O[C@H]([C@H](C)C[C@@H]2CC[C@H](n3nncc3-c3cccc(-c4cnc(N5CCN(S(=O)(=O)CCc6cn(CCOCCOCCC(=O)NCCCCn7nc(-c8ccc9oc(N)nc9c8)c8c(N)ncnc87)nn6)CC5)nc4)c3)[C@H](OC)C2)CC(=O)[C@H](C)/C=C(\C)[C@@H](O)[C@@H](OC)C(=O)[C@H](C)C[C@H](C)/C=C/C=C/C=C/1C : IC50 value = 3.16 to 31.6 nM
